Consider the following IC50 values measured on JAK3 (Homo sapiens (Human), UniProt P52333).
Sequence (P52333 781-1124): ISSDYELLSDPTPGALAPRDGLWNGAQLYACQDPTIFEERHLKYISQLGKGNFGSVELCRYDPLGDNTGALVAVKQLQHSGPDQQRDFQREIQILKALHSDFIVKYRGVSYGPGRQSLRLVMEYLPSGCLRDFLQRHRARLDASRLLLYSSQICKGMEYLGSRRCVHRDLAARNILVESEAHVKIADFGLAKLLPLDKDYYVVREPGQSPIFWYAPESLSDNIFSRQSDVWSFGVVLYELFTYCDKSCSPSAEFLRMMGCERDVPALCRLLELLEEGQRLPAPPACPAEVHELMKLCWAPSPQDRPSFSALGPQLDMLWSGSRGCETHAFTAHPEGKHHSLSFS

Some solved cases for reference:
>  <compound>
COCCOc1ccc(Nc2ncc(F)c(Nc3cccc(NS(=O)(=O)c4c(F)c(F)c(F)c(F)c4OC(F)F)c3)n2)cc1 [Compound I-54]

>  <targetOrTestSystem>
JAK3 (Homo sapiens (Human), UniProt P52333)

>  <resultValue>
> 1000 nM

$$$$
>  <compound>
CN(C)S(=O)(=O)c1c(F)c(F)c(F)c(F)c1C(=O)NCCNc1ncnc2[nH]ccc12 [Compound I-47]

>  <targetOrTestSystem>
JAK3 (Homo sapiens (Human), UniProt P52333)

>  <resultValue>
< 1000 nM

$$$$
>  <compound>
C[S@+]([O-])c1c(F)c(F)c(F)c(F)c1C(=O)N1CC(n2nc(-c3ccc(Oc4ccccc4)cc3)c3c(N)ncnc32)C1 (racemic) [Compound I-37]

>  <targetOrTestSystem>
JAK3 (Homo sapiens (Human), UniProt P52333)

>  <resultValue>
> 1000 nM

$$$$

Please examine the following record next.
Query: Retrieve IC50 on JAK3 (Homo sapiens (Human), UniProt P52333); query COCCOc1ccc(Nc2ncc(F)c(Nc3cccc(NC(=O)c4c(F)c(F)c(F)c(F)c4S(C)(=O)=O)c3)n2)cc1 [Compound I-61]
Response: < 1000 nM

---

# targetOrTestSystem: EGFR (Homo sapiens (Human), UniProt P00533)
# Sequence (P00533 25-1210): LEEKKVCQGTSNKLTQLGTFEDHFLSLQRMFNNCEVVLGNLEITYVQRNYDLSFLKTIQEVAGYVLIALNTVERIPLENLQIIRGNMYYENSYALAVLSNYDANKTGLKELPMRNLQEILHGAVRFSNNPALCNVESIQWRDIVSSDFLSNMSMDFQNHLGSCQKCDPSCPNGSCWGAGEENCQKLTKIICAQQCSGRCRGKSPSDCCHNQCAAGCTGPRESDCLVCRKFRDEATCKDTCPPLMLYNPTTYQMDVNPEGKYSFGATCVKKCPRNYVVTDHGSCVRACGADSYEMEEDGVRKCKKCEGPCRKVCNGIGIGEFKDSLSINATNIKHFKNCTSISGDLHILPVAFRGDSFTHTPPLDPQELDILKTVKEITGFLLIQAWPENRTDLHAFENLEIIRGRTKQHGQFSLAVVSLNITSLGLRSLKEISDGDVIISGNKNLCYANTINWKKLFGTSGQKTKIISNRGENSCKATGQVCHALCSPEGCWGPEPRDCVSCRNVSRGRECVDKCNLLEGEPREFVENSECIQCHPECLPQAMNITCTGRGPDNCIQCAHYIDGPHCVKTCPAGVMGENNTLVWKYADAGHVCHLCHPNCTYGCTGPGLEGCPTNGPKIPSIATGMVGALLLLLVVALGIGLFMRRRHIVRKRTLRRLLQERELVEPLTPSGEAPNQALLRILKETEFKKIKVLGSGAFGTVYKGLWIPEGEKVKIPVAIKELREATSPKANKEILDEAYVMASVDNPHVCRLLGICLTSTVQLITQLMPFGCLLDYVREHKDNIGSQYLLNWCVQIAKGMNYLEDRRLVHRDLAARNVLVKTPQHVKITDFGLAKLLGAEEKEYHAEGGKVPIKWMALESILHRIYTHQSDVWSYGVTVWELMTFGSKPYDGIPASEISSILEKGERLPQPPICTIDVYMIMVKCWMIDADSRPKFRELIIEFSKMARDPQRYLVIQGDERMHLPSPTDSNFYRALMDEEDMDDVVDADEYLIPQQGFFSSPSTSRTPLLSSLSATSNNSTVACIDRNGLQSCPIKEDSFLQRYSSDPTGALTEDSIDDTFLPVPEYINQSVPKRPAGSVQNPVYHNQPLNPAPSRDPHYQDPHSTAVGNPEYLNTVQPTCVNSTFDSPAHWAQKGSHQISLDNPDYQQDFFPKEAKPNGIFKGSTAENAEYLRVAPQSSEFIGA
# experimentSummary: HTRF KinEASE-TK kinase assay, EGFR
# Type: biochemical
# conditionInfo: 10 μM compound, 3 h preincubation; read-out: % EGFR Remaining activity vs DMSO (10 μM, 3 h)
propertyLabel: remaining activity at 10 µM

Examples with their reported remaining activity at 10 µM follow.
>  <compound>
COCCOc1ccc(Nc2ncc(F)c(NCCCNS(=O)(=O)c3c(F)c(F)c(F)c(F)c3C(F)F)n2)cc1 [Compound I-52]

>  <propertyLabel>
remaining activity at 10 µM

>  <resultValue>
50 to 90%

$$$$
>  <compound>
C[S+]([O-])c1c(F)c(F)c(F)c(F)c1C(=O)N1CCC[C@@H](n2nc(-c3ccc(Oc4ccccc4)cc3)c3c(N)ncnc32)C1 (stereo partly shown) [Compound I-36]

>  <propertyLabel>
remaining activity at 10 µM

>  <resultValue>
> 90%

$$$$
>  <compound>
COCCOc1ccc(Nc2ncc(F)c(Nc3cccc(Nc4c(F)c(F)c(F)c(F)c4[S@+](C)[O-])c3)n2)cc1 (stereo in doubt) [Compound I-63]

>  <propertyLabel>
remaining activity at 10 µM

>  <resultValue>
> 90%

$$$$

Query: Provide one value: measured remaining activity at 10 µM of CN(CCn1nc(-c2ccc(Oc3ccccc3)cc2)c2c(N)ncnc21)C(=O)c1c(F)c(F)c(F)c(F)c1S(C)(=O)=O [Compound I-28]
Response: < 50%

Query: Kindly indicate its recorded remaining activity at 10 µM. Item: COCCOc1ccc(Nc2ncc(F)c(NCCCNS(=O)(=O)c3c(F)c(F)c(F)c(F)c3CF)n2)cc1 [Compound I-56]
Response: > 90%

Query: Identify remaining activity at 10 µM associated with the compound C[S+]([O-])c1c(F)c(F)c(F)c(F)c1Nc1cc2c(Nc3ccc(F)c(Cl)c3)ncnc2cc1O[C@H]1CCOC1 (stereo partly shown) [Compound I-4]
Response: < 50%

Query: Note down remaining activity at 10 µM recorded for COCCOc1ccc(Nc2ncc(F)c(Nc3cccc(NS(=O)(=O)c4c(F)c(F)c(F)c(F)c4C(F)F)c3)n2)cc1 [Compound I-51]
Response: > 90%

---

# targetOrTestSystem: UniProt O43353
# Sequence (O43353 whole entry, species assumed): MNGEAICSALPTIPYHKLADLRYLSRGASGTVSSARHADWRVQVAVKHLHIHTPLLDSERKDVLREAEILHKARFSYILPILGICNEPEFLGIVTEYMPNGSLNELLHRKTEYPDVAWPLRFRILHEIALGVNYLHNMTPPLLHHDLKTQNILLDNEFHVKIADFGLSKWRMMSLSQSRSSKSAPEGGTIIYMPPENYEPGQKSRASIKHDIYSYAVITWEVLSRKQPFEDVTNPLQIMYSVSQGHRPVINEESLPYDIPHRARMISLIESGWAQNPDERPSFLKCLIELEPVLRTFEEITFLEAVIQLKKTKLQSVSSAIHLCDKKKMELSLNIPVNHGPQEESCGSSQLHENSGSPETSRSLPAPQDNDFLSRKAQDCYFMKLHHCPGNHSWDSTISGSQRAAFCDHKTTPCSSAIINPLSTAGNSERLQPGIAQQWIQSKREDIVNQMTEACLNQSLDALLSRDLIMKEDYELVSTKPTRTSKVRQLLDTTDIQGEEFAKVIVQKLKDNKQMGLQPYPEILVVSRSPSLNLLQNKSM
# experimentSummary: In vitro RIPK2 inhibition
# Assay type: biochemical
# conditionInfo: read-out: % RIPK2 Remaining activity vs DMSO (10 μM, 3 h)
propertyLabel: remaining activity at 10 µM

>  <compound>
CN(C)S(=O)(=O)c1c(F)c(F)c(F)c(F)c1C(=O)NCCn1nc(-c2ccc(Oc3ccccc3)cc2)c2c(N)ncnc21 [Compound I-40]

>  <remaining activity at 10 µM>
> 90%

$$$$

Query: Given the compound CS(=O)(=O)c1c(F)c(F)c(F)c(F)c1C(=O)n1ccc2c(N)ncnc21 [Compound I-49] , write its reported remaining activity at 10 µM.
Response: < 50%

Query: Tell me its remaining activity at 10 µM given Nc1ncnc2c1c(-c1ccc(Oc3ccccc3)cc1)nn2CCNC(=O)c1c(F)c(F)c(F)c(F)c1S(N)(=O)=O [Compound I-42] as the entry.
Response: > 90%

---

# targetOrTestSystem: EGFR (Homo sapiens (Human), UniProt P00533)
# experimentSummary: A549 cell lysis and immunoassay, total EGFR degradation
# Assay type: cell-based
# Parameters: key: Y: EGFR bound in cells and EGFR degradation occurred
# conditionInfo: A549 cells, compound concentration 10, 24 h
propertyLabel: EGFR degradation (A549, compound concentration, 24 h)

For orientation, consider the following solved cases.
>  <molecule>
NS(=O)(=O)c1c(F)c(F)c(F)c(F)c1C(=O)NCCNc1ncnc2[nH]ccc12

>  <resultValue>
Y

$$$$
>  <molecule>
CN(C)S(=O)(=O)c1c(F)c(F)c(F)c(F)c1C(=O)NCCNc1ncnc2[nH]ccc12

>  <resultValue>
Y

$$$$
>  <molecule>
CN(CCn1nc(-c2ccc(Oc3ccccc3)cc2)c2c(N)ncnc21)C(=O)c1c(F)c(F)c(F)c(F)c1S(N)(=O)=O

>  <resultValue>
Y

$$$$
>  <molecule>
C[S+]([O-])c1c(F)c(F)c(F)c(F)c1Nc1cc2c(Nc3ccc(F)c(Cl)c3)ncnc2cc1O[C@H]1CCOC1 (stereo partly shown)

>  <resultValue>
Y

$$$$
>  <molecule>
CS(=O)(=O)c1c(F)c(F)c(F)c(F)c1Nc1cc2c(Nc3ccc(F)c(Cl)c3)ncnc2cc1O[C@H]1CCOC1

>  <resultValue>
Y

$$$$
>  <molecule>
COCCOc1ccc(Nc2ncc(F)c(Nc3cccc(Nc4c(F)c(F)c(F)c(F)c4[S@+](C)[O-])c3)n2)cc1 (stereo in doubt)

>  <resultValue>
Y

$$$$

Query: Provide one value: measured EGFR degradation (A549, compound concentration, 24 h) of `COCCOc1ccc(Nc2ncc(F)c(Nc3cccc(NC(=O)c4c(F)c(F)c(F)c(F)c4S(C)(=O)=O)c3)n2)cc1`
Response: Y

---

This listing pairs compounds with measured remaining activity at 1 µM.
# targetOrTestSystem: FGFR4 (Homo sapiens (Human))
# Sequence (P22455 22-802): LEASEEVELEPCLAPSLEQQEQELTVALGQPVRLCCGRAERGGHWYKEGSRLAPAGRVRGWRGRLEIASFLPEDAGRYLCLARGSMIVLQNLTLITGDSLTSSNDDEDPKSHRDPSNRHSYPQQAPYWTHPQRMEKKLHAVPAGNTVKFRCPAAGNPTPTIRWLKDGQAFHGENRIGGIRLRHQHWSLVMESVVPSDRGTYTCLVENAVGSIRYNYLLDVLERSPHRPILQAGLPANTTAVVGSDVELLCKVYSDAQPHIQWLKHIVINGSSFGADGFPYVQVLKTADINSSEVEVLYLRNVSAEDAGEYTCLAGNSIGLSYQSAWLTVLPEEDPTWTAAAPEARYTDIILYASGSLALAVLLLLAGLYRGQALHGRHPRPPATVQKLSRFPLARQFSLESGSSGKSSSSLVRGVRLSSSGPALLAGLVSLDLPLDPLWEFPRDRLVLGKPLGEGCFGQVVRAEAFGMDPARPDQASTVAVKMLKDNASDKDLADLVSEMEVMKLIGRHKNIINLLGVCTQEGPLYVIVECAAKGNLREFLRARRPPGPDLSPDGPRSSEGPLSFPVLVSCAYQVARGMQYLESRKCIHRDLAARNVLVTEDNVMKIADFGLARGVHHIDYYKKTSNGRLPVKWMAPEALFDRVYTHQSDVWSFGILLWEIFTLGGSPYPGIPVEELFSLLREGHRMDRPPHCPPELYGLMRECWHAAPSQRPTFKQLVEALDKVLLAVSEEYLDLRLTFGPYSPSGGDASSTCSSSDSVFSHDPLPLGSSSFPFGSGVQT
# experimentSummary: HTRF KinEASE-TK kinase assay, FGFR4
# Assay type: biochemical
# conditionInfo: read-out: % FGFR4 Remaining activity vs DMSO (1 μM, 3 h)

Look over these answered cases.
>  <compound>
CN(CCn1nc(-c2ccc(Oc3ccccc3)cc2)c2c(N)ncnc21)C(=O)c1c(F)c(F)c(F)c(F)c1S(C)(=O)=O [Compound I-28]

>  <targetOrTestSystem>
FGFR4 (Homo sapiens (Human))

>  <resultValue>
< 50%

$$$$
>  <compound>
COCCOc1ccc(Nc2ncc(F)c(NCCCNS(=O)(=O)c3c(F)c(F)c(F)c(F)c3CF)n2)cc1 [Compound I-56]

>  <targetOrTestSystem>
FGFR4 (Homo sapiens (Human))

>  <resultValue>
50 to 90%

$$$$
>  <compound>
CN(CCn1nc(-c2ccc(Oc3ccccc3)cc2)c2c(N)ncnc21)C(=O)c1c(F)c(F)c(F)c(F)c1S(N)(=O)=O [Compound I-33]

>  <targetOrTestSystem>
FGFR4 (Homo sapiens (Human))

>  <resultValue>
50 to 90%

$$$$
>  <compound>
CN(CCn1nc(-c2ccc(Oc3ccccc3)cc2)c2c(N)ncnc21)c1c(F)c(F)c(F)c(F)c1S(C)(=O)=O [Compound I-43]

>  <targetOrTestSystem>
FGFR4 (Homo sapiens (Human))

>  <resultValue>
> 90%

$$$$
>  <compound>
CN(C)S(=O)(=O)c1c(F)c(F)c(F)c(F)c1C(=O)NCCCn1nc(-c2ccc(Oc3ccccc3)cc2)c2c(N)ncnc21 [Compound I-41]

>  <targetOrTestSystem>
FGFR4 (Homo sapiens (Human))

>  <resultValue>
50 to 90%

$$$$

Query: Given CS(=O)(=O)c1c(F)c(F)c(F)c(F)c1C(=O)Nc1cc2c(Nc3ccc(F)c(Cl)c3)ncnc2cc1O[C@H]1CCOC1 [Compound I-5] , report its remaining activity at 1 µM on FGFR4 (Homo sapiens (Human)).
Response: > 90%

Query: GET remaining activity at 1 µM | system: FGFR4 (Homo sapiens (Human)) | item: C[S+]([O-])c1c(F)c(F)c(F)c(F)c1C(=O)Nc1cc2c(Nc3ccc(F)c(Cl)c3)ncnc2cc1OC1CCOC1 (stereo not drawn) [Compound I-3]
Response: > 90%

Query: Param request: remaining activity at 1 µM | system FGFR4 (Homo sapiens (Human)) | item C[S+]([O-])c1c(F)c(F)c(F)c(F)c1Nc1cc2c(Nc3ccc(F)c(Cl)c3)ncnc2cc1O[C@H]1CCOC1 (stereo partly drawn) [Compound I-4]
Response: > 90%

Query: Under FGFR4 (Homo sapiens (Human)): report remaining activity at 1 µM of CN(C)S(=O)(=O)c1c(F)c(F)c(F)c(F)c1C(=O)N1CCC[C@@H](n2nc(-c3ccc(Oc4ccccc4)cc3)c3c(N)ncnc32)C1 [Compound I-31] .
Response: 50 to 90%

Query: Under FGFR4 (Homo sapiens (Human)): report remaining activity at 1 µM of Nc1ncnc2c1c(-c1ccc(Oc3ccccc3)cc1)nn2CCCNC(=O)c1c(F)c(F)c(F)c(F)c1S(N)(=O)=O [Compound I-34] .
Response: < 50%

Query: Tell me remaining activity at 1 µM of CN(C)S(=O)(=O)c1c(F)c(F)c(F)c(F)c1C(=O)NCCNc1ncnc2[nH]ccc12 [Compound I-47] when tested on FGFR4 (Homo sapiens (Human)).
Response: 50 to 90%

Query: Report its remaining activity at 1 µM with FGFR4 (Homo sapiens (Human)) as the test system: COCCOc1ccc(Nc2ncc(F)c(Nc3cccc(NS(=O)(=O)c4c(F)c(F)c(F)c(F)c4C(F)(F)F)c3)n2)cc1 [Compound I-53]
Response: < 50%

Query: Write down measured remaining activity at 1 µM (FGFR4 (Homo sapiens (Human))) for this compound. COCCOc1ccc(Nc2ncc(F)c(Nc3cccc(NS(=O)(=O)c4c(F)c(F)c(F)c(F)c4C(F)F)c3)n2)cc1 [Compound I-51]
Response: > 90%

Query: Give remaining activity at 1 µM only, for CS(=O)(=O)c1c(F)c(F)c(F)c(F)c1CNCCn1nc(-c2ccc(Oc3ccccc3)cc2)c2c(N)ncnc21 [Compound I-44] , using FGFR4 (Homo sapiens (Human)) data.
Response: > 90%

Query: System FGFR4 (Homo sapiens (Human)). Read-out remaining activity at 1 µM. Item CS(=O)(=O)c1c(F)c(F)c(F)c(F)c1C(=O)NCCn1nc(-c2ccc(Oc3ccccc3)cc2)c2c(N)ncnc21 [Compound I-38] . Report value.
Response: < 50%
